# procedureText: Pharmacokinetic experiment in rats
# Format: in vivo
# condition: plasma, iv; rat, vein 10 mg/kg; read-out: AUC0-t

| molecule | AUC(0-t) [ng·h/mL] |
| --- | --- |
| Cc1nc(C#Cc2ccc(F)c(C(=O)Nc3cccnc3)c2)cs1 [ZD043] | 66400 |

* * *

# procedureText: Pharmacokinetic experiment in rats
# Format: in vivo
# condition: plasma, po; rat, gavage 20 mg/kg vs intravenous 10 mg/kg; read-out: F (absolute bioavailability)
# Protocol: Six healthy rats weighing 150-200 g were randomly divided into […] (n=3). The rats were given 10 mL/kg ZD043 by gavage and intravenous injection. The dose of gavage was 20 mg/kg, and the dose of intravenous administration was 10 mg/kg. The drug was formulated in DMSO/Tween 80/saline (5:5:90, v/v/v). The rats were fasted for 12 h before testing, and drinked water ad libitum. 2 h after administration, all rats ate together. […]
measuredAttribute: bioavailability

| smilesText | measuredAttribute | measValue |
| --- | --- | --- |
| Cc1nc(C#Cc2ccc(F)c(C(=O)Nc3cccnc3)c2)cs1 | bioavailability | 31.6% |

* * *

# procedureText: Determination of brain tissue content in rats
# Format: in vivo
# condition: rat, sampling time 3 h; read-out: brain

| compound | concentration at 3 h (ng/g) |
| --- | --- |
| Cc1nc(C#Cc2ccc(F)c(C(=O)Nc3cccnc3)c2)cs1 [ZD043] | 164 |

* * *

# procedureText: Determination of brain tissue content in rats
# Type: in vivo
# condition: cerebrospinal fluid; rat, sampling time 0.25 h; read-out: Cerebrospinal fluid
measuredAttribute: concentration at 0.25 h (ng/mL)

| smilesText | measuredAttribute | measValue |
| --- | --- | --- |
| Cc1nc(C#Cc2ccc(F)c(C(=O)Nc3cccnc3)c2)cs1 | concentration at 0.25 h | 25.5 |

* * *

# procedureText: Pharmacokinetic experiment in rats
# Type: in vivo
# condition: plasma, po; rat, gavage 20 mg/kg

| smilesText | unitString | MRT |
| --- | --- | --- |
| Cc1nc(C#Cc2ccc(F)c(C(=O)Nc3cccnc3)c2)cs1 | h | 1.06 |

* * *

# procedureText: Pharmacokinetic experiment in rats
# Type: in vivo
# condition: plasma, iv; rat, vein 10 mg/kg
measuredAttribute: Cmax (µg/mL)

| compound | measuredAttribute | measValue |
| --- | --- | --- |
| Cc1nc(C#Cc2ccc(F)c(C(=O)Nc3cccnc3)c2)cs1 [ZD043] | Cmax | 75.4 |

* * *

# procedureText: Pharmacokinetic experiment in rats
# Assay type: in vivo
# condition: plasma, intravenous; rat, vein 10 mg/kg; read-out: AUC0-t

| smilesText | AUC(0-t) (ng·h/mL) |
| --- | --- |
| Cc1nc(C#Cc2ccc(F)c(C(=O)Nc3cccnc3)c2)cs1 | 66400 |

* * *

# procedureText: Pharmacokinetic experiment in rats
# Assay type: in vivo
# condition: rat, plasma, po, 20 mg/kg, gavage 20 mg/kg
measuredAttribute: half-life (h)

| smilesText | measuredAttribute | measValue |
| --- | --- | --- |
| Cc1nc(C#Cc2ccc(F)c(C(=O)Nc3cccnc3)c2)cs1 | half-life | 1.3 |

* * *

# targetSystem: mGluR5 (Homo sapiens (Human), UniProt P41594)
# Sequence (P41594 21-1212): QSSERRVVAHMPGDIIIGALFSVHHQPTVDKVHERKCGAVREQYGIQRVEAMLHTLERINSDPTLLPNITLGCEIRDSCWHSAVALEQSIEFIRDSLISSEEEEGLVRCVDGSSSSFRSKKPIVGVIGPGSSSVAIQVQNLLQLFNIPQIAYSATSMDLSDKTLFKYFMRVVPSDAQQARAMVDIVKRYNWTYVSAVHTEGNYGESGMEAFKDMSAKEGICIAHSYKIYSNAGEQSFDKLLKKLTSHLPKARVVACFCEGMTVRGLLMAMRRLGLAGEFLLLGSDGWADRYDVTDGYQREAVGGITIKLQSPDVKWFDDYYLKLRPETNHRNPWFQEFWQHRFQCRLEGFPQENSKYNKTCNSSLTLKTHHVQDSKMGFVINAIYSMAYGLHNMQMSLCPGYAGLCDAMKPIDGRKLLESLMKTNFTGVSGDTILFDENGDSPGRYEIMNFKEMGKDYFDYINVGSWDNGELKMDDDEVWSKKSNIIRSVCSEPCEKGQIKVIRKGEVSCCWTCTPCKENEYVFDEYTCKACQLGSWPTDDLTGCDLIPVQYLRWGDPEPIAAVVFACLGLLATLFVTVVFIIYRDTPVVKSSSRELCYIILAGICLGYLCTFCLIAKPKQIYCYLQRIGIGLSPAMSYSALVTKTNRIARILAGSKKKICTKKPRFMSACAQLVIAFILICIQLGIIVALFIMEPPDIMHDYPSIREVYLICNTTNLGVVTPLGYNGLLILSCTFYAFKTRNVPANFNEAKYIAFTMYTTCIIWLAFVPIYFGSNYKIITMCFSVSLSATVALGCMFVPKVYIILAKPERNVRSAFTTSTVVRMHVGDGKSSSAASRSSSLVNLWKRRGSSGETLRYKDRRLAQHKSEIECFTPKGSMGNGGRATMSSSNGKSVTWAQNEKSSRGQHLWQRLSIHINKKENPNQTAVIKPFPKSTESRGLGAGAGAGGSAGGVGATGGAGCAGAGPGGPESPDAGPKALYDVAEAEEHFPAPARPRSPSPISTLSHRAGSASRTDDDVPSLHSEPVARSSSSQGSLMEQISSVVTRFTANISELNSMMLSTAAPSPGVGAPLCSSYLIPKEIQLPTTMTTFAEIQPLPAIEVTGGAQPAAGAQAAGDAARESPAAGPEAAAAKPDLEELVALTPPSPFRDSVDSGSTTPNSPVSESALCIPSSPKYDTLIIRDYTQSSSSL
# procedureText: In vitro activity test for mGluR5, HDB Fluo-8 calcium fluorescence detection (FLIPR)
# condition: HEK293/mGluR5 cell line
// returns F unless IC50 is strictly below 90 nM, in which case T

| compound | qualitativeLabel |
| --- | --- |
| Cc1nc(C#Cc2ccc(F)c(C(=O)Nc3ccc(F)cc3)c2)cs1 [ZD004] | T |
| Cc1nc(C#Cc2ccc(F)c(C(=O)N3CCc4ccccc4C3C)c2)cs1 (centres unmarked) [ZD049] | T |
| Cc1nc(C#Cc2ccc(F)c(C(=O)Nc3cccnc3)c2)cs1 [ZD043] | T |
| O=C(Nc1ccc(F)cc1)c1cc(C#Cc2ccncc2)ccc1F [ZD039] | F |
| N#Cc1ccc(NC(=O)c2cc(C#Cc3ccccn3)ccc2F)cc1 [ZD044] | T |

* * *

# procedureText: Pharmacokinetic experiment in rats
# Type: in vivo
# condition: plasma, po; rat, gavage 20 mg/kg

| smilesText | Cmax |
| --- | --- |
| Cc1nc(C#Cc2ccc(F)c(C(=O)Nc3cccnc3)c2)cs1 | 7120 ng/mL |

* * *

# procedureText: Determination of brain tissue content in rats
# Type: in vivo
# condition: cerebrospinal fluid; rat, sampling time 3 h; read-out: Cerebrospinal fluid
measuredAttribute: concentration at 3 h (ng/mL)

| smilesText | unitString | measValue |
| --- | --- | --- |
| Cc1nc(C#Cc2ccc(F)c(C(=O)Nc3cccnc3)c2)cs1 | ng/mL | 7.99 |

* * *

# procedureText: Pharmacokinetic experiment in rats
# Type: in vivo
# condition: plasma, oral; rat, gavage 20 mg/kg vs intravenous 10 mg/kg; read-out: F (absolute bioavailability)

| smilesText | bioavailability |
| --- | --- |
| Cc1nc(C#Cc2ccc(F)c(C(=O)Nc3cccnc3)c2)cs1 | 31.6% |
